# Test system: velvetleaf (Abutilon theophrasti)
# Test: Test A pre-/postemergence: velvetleaf
# Type: in vivo
# Cond: Postemergence, 125 g ai/ha; 0 to 100 scale, 0 is no effect, 100 is complete control
Reported Velvetleaf plant response rating values are given for each entry in this list.

Item Smiles: COc1nn(-c2ccc(C(F)(F)F)cc2)nc1Cn1cnc(C(F)(F)F)n1
Velvetleaf plant response rating: 70
--
Item Smiles: Cc1nn(-c2ccc(C(F)(F)F)cc2)nc1Cn1c(Cl)nc(C(F)(F)F)c1Cl
Velvetleaf plant response rating: 0
--
Item Smiles: Cc1nn(-c2ccc(F)cc2)nc1Oc1cccc(C(F)(F)F)n1
Velvetleaf plant response rating: 20
--
Item Smiles: CSc1nn(-c2ccc(F)cc2)nc1Cc1ccnc(C(F)(F)F)c1
Velvetleaf plant response rating: 40
--
Item Smiles: Cc1nn(-c2ccc(F)cc2)nc1Oc1nccc(C(F)(F)F)n1
Velvetleaf plant response rating: 0
--
Item Smiles: Cc1nn(-c2ccc(C(F)(F)F)cn2)nc1Oc1ccnc(C(F)(F)F)c1
Velvetleaf plant response rating: 90
--
Item Smiles: Cc1nn(-c2ccc(Cl)nc2)nc1C(=O)c1cccc(C(F)(F)F)c1
Velvetleaf plant response rating: 0
--
Item Smiles: FC(F)(F)c1ccc(-n2nc(Cl)c(Cc3ccnc(C(F)(F)F)c3)n2)cc1
Velvetleaf plant response rating: 80
--
Item Smiles: Cc1ccc(-n2nc(C)c(C(=O)c3cccc(C(F)(F)F)c3)n2)cc1
Velvetleaf plant response rating: 60

----------
# System: blackgrass (Alopecurus myosuroides)
# Test: Test C pre-/postemergence: blackgrass
# Type: in vivo
# Cond: Preemergence, 125 g ai/ha; scale 0 to 100, 0 no effect, 100 complete control
# From the text: […] Treated plants and controls were maintained in a greenhouse for 13 to 15 days, after which time all species were compared to controls and visually evaluated. […]

Item Smiles: Fc1ccc(-n2nc(Cc3ccnc(C(F)(F)F)c3)c(OC(F)F)n2)cc1
Plant response rating, Blackgrass: 95
--
Item Smiles: COc1nn(-c2ccc(C(F)(F)F)cc2)nc1Cc1ccnc(C(F)(F)F)c1
Plant response rating, Blackgrass: 95
--
Item Smiles: CCCc1nn(-c2ccc(F)cc2)nc1Oc1ccnc(C(F)(F)F)c1
Plant response rating, Blackgrass: 95
--
Item Smiles: CCCc1nn(-c2ccc(F)cc2F)nc1Oc1ccnc(C(F)(F)F)c1
Plant response rating, Blackgrass: 100
--
Item Smiles: CCOCc1nn(-c2ccc(F)cc2)nc1Oc1ccnc(C(F)(F)F)c1
Plant response rating, Blackgrass: 90
--
Item Smiles: CCc1nn(-c2ccc(F)cc2)nc1Cc1ccnc(C(F)(F)F)c1
Plant response rating, Blackgrass: 90

----------
# Test system: corn (Zea mays)
# Test: Test A pre-/postemergence: corn
# Format: in vivo
# Cond: Postemergence, 125 g ai/ha; 0 to 100 scale, 0 is no effect, 100 is complete control

Molecule: CCCc1nn(-c2ccc(F)c(F)c2)nc1Oc1ccnc(C(F)(F)F)c1 [Compound 172]
Plant response rating, Corn: 30
--
Molecule: CCc1nn(-c2ccc(F)c(C(F)(F)F)c2)nc1Oc1ccnc(C(F)(F)F)c1 [Compound 180]
Plant response rating, Corn: 20
--
Molecule: CCc1nn(-c2ccc(C(F)(F)F)c(F)c2)nc1Oc1ccnc(C(F)(F)F)c1 [Compound 183]
Plant response rating, Corn: 20
--
Molecule: CCc1nn(-c2ccc(C(F)(F)F)cc2)nc1Oc1ccnc(C(F)(F)F)c1 [Compound 169]
Plant response rating, Corn: 10
--
Molecule: CCOCc1nn(-c2ccc(F)cc2)nc1Oc1ccnc(C(F)(F)F)c1 [Compound 163]
Plant response rating, Corn: 20
--
Molecule: CCc1nn(-c2ccc(F)c(F)c2)nc1Oc1ccnc(C(F)(F)F)c1 [Compound 171]
Plant response rating, Corn: 20
--
Molecule: CC(=O)Oc1nn(-c2ccc(C(F)(F)F)cc2)nc1Cc1ccnc(C(F)(F)F)c1 [Compound 197]
Plant response rating, Corn: 0
--
Molecule: CC(C)Oc1nn(-c2ccc(C(F)(F)F)cc2)nc1Cc1ccnc(C(F)(F)F)c1 [Compound 192]
Plant response rating, Corn: 10
